Overview of recorded IC50 for various molecules
Target Of Assay: full-length activated BTK (wildtype) (Homo sapiens (Human), UniProt Q06187)
Sequence (Q06187 whole entry): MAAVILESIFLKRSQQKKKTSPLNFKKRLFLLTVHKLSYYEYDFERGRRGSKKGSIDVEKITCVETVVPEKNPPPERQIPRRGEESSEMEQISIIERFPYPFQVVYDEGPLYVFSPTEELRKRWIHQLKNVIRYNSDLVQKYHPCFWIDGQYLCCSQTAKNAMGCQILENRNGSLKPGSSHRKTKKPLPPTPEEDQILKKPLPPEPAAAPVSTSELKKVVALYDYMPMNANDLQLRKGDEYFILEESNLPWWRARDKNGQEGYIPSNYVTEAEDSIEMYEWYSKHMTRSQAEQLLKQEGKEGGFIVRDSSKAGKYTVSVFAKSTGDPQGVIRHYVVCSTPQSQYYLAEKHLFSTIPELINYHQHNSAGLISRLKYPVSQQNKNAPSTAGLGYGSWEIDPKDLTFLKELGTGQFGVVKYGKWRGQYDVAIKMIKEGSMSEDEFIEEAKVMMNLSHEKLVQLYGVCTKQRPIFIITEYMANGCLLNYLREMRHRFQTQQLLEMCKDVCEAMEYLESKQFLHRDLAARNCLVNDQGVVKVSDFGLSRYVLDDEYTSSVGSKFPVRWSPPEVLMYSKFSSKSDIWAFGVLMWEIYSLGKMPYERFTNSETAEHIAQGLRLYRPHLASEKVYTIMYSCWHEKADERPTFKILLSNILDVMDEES
Method Notes: AlphaScreen assay, wild-type BTK
Provide only the numeric value, understood in nM.

Look over these answered cases.
Molecule: COCCOc1ccc(Cl)c(C(=O)c2c[nH]c3ncnc(N[C@@H]4CC[C@@H](CO)OC4)c23)c1
IC50, nM: 731
--
Molecule: COCCNC(=O)c1ccc(Cl)c(C(=O)c2c[nH]c3ncnc(N[C@@H]4CC[C@@H](CO)OC4)c23)c1
IC50, nM: 1210
--
Molecule: CN1CCN(C(=O)c2ccc(C(=O)c3c[nH]c4ncnc(N[C@@H]5CC[C@@H](CO)OC5)c34)c(Cl)c2)CC1
IC50, nM: 598

IN: Any idea what its IC50 is? The molecule is "O=C(NC1CC2(COC2)C1)c1ccc(C(=O)c2c[nH]c3ncnc(N[C@@H]4CC[C@@H](CO)OC4)c23)c(Cl)c1"
OUT: 571

IN: Any idea what its IC50 is? The molecule is C=CC(=O)N1CCCC(Nc2ncnc3[nH]cc(C(=O)c4ccc(Oc5ccccc5)cc4Cl)c23)C1 (racemic) [Compound I-321r]
OUT: 4.5

IN: Any idea what its IC50 is? The molecule is "CS(=O)(=O)N1C[C@H](Nc2ncnc3[nH]cc(C(=O)c4ccc(Oc5ccccc5)cc4Cl)c23)C[C@H]1CO"
OUT: 123

IN: Any idea what its IC50 is? The molecule is "O=C(Nc1ccc(Cl)c(C(=O)c2c[nH]c3ncnc(N[C@@H]4CC[C@@H](CO)OC4)c23)c1)c1ccccc1"
OUT: 20.9

* * *

Target Of Assay: full-length activated BTK (wildtype) (Homo sapiens (Human))
Method Notes: AlphaScreen assay, wild-type BTK
Quantity Kind: IC50 (nM)
Provide only the numeric value, understood in nM.

IN: Any idea what its IC50 is? The molecule is O=C(c1ccc(Oc2ccccc2)cc1Cl)c1c[nH]c2ncnc(NC[C@H]3CCC[C@@H](CO)N3)c12 (racemic) [Compound I-359e]
OUT: 29.4

IN: Any idea what its IC50 is? The molecule is O=C(Cc1ccccc1)Nc1ccc(Cl)c(C(=O)c2c[nH]c3ncnc(N[C@@H]4CC[C@@H](CO)OC4)c23)c1 [Compound I-602]
OUT: 140

IN: Any idea what its IC50 is? The molecule is CN1C[C@H](Nc2ncnc3[nH]cc(C(=O)c4ccc(Oc5ccccc5)cc4Cl)c23)C[C@H]1CO [Compound I-342e]
OUT: 14.2

IN: Any idea what its IC50 is? The molecule is O=C(c1cc(C(=O)N2CCc3ccccc3C2)ccc1Cl)c1c[nH]c2ncnc(N[C@@H]3CC[C@@H](CO)OC3)c12 [Compound I-625]
OUT: 110

IN: Any idea what its IC50 is? The molecule is O=C(c1ccc(N2CCOCC2)cc1Cl)c1c[nH]c2ncnc(N[C@@H]3CC[C@@H](CO)OC3)c12 [Compound I-311i]
OUT: 867

IN: Any idea what its IC50 is? The molecule is O=C(c1ccc(N2CCCCC2)cc1Cl)c1c[nH]c2ncnc(N[C@@H]3CC[C@@H](CO)OC3)c12 [Compound I-646]
OUT: 380

IN: Any idea what its IC50 is? The molecule is CC#CC(=O)N1CCCC(Nc2ncnc3[nH]cc(C(=O)c4ccc(Oc5ccccc5)cc4Cl)c23)C1 (racemic) [Compound I-324r]
OUT: 17.2
